Consider the following molecules and their measured viability, T/C readings.
# System: LG0703-F948-PDC complex spheroid viability;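 further: spheroids exposed to agents for 7 days; 100% = DMSO vehicle wells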
# measurement_notes: Anticancer human tumor LG0703-F948-PDC patient-derived lung adenocarcinoma cell line growth inhibition [RAS]
# conditions_used: second compound 0.0949 µM; first compound 10 µM; active compounds read low

>  <molecule>
CC1(O)CCCC1n1c(=O)c(C(F)F)cc2cnc(NC3CCN(S(C)(=O)=O)CC3)nc21 (centres undefined) + CCn1c(-c2cc(N3CCN(C)CC3)cnc2C(C)OC)c2c3cc(ccc31)-c1csc(n1)CC(NC(=O)C1CC1C)C(=O)N1CCCC(N1)C(=O)OCC(C)(C)C2

>  <study_target>
LG0703-F948-PDC complex spheroid viability;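 further: spheroids exposed to agents for 7 days; 100% = DMSO vehicle wells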

>  <viability, T/C [%]>
5.97

$$$$
>  <molecule>
CC(C)NCC(C(=O)N1CCN(c2ncnc3c2C(C)CC3O)CC1)c1ccc(Cl)cc1 (centres undefined) + CCn1c(-c2cc(N3CCN(C)CC3)cnc2C(C)OC)c2c3cc(ccc31)-c1csc(n1)CC(NC(=O)C1CC1C)C(=O)N1CCCC(N1)C(=O)OCC(C)(C)C2

>  <study_target>
LG0703-F948-PDC complex spheroid viability;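 further: spheroids exposed to agents for 7 days; 100% = DMSO vehicle wells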

>  <viability, T/C [%]>
0.64

$$$$
>  <molecule>
CC(C)NCC(C(=O)N1CCN(c2ncnc3c2C(C)CC3O)CC1)c1ccc(Cl)cc1 (centres undefined) + CCn1c(-c2cccnc2C(C)OC)c2c3cc(ccc31)N1CCOC(CC(NC(=O)C(C(C)C)N(C)C(=O)C3(F)CCN(C(=O)C#CC(C)(C)N(C)C)CC3)C(=O)N3CCCC(N3)C(=O)OCC(C)(C)C2)C1

>  <study_target>
LG0703-F948-PDC complex spheroid viability;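 further: spheroids exposed to agents for 7 days; 100% = DMSO vehicle wells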

>  <viability, T/C [%]>
28.9

$$$$
>  <molecule>
NC1c2ccccc2OC12CCN(c1cnc3c(N4CCCc5ncccc54)n[nH]c3n1)CC2 (centres undefined) + CCn1c(-c2cc(N3CCN(C)CC3)cnc2C(C)OC)c2c3cc(ccc31)-c1csc(n1)CC(NC(=O)C1CC1C)C(=O)N1CCCC(N1)C(=O)OCC(C)(C)C2

>  <study_target>
LG0703-F948-PDC complex spheroid viability;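 further: spheroids exposed to agents for 7 days; 100% = DMSO vehicle wells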

>  <viability, T/C [%]>
1.78

$$$$
